subject_of_test: IGF-1R (Homo sapiens)
Construct: expressed in transfected cells
Sequence (P08069 31-1367): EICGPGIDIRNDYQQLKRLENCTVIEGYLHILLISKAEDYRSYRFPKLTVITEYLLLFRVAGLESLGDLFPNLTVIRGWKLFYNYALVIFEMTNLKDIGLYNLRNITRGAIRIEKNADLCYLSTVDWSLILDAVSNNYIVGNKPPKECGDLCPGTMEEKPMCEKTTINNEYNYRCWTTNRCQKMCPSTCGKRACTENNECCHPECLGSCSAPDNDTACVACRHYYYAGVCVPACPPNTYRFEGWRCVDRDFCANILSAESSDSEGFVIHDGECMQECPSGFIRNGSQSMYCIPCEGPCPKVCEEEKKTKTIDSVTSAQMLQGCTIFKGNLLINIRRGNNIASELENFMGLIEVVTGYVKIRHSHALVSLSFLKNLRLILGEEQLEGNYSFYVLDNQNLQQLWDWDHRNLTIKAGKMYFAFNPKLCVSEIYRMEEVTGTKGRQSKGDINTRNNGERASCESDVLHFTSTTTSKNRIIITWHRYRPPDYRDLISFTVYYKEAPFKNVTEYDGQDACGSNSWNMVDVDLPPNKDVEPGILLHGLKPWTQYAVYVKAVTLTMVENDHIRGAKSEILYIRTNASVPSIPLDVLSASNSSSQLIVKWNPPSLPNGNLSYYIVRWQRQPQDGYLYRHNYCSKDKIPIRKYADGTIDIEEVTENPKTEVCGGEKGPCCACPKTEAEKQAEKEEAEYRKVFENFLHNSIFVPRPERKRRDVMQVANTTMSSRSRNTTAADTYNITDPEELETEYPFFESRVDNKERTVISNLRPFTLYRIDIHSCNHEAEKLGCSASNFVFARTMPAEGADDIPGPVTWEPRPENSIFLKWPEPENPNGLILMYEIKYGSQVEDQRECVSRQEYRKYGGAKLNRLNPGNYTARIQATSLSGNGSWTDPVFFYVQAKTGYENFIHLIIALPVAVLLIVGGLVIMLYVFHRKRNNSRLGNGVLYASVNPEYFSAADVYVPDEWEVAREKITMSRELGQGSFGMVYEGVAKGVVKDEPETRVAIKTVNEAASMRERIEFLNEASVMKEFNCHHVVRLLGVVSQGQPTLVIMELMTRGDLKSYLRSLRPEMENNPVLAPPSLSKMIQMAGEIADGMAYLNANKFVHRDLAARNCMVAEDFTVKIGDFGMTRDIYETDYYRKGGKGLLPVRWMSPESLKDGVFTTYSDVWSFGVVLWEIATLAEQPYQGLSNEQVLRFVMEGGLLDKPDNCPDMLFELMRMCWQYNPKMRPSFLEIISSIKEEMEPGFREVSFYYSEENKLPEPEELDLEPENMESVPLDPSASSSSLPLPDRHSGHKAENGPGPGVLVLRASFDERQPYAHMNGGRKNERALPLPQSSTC
protocol_description: Example B-2: IGF-1R Assay (PathHunter cell lines, EC80 agonist challenge, chemiluminescent detection)
Format: cell-based
experimental_setup: PathHunter cells, compound 60 minutes at 37° C., EC80 agonist 3 hours; read-out: IC50, Biological Activity against IGF-1R (Table B2)
measurement_type: IC50

Guide cases for IC50, answers given:
CN1CC(Nc2cc(CN3C(=O)N(c4ccc(S(=O)(=O)C(F)(F)F)cc4)C(=O)C3(C)C)ccn2)CCC1=O (stereo not drawn)
500 to 2000 nM
CC1(C)C(=O)N(c2ccc3c(c2)N(C(=O)C2CC2)CC32CCC2)C(=O)N1Cc1ccnc(NC2C3COCC32)c1 (stereo not drawn)
≤ 500 nM

Okay, here is my list. What is IC50 for each of these?
1. CC1(C)C(=O)N(c2ccc(SC(F)(F)F)cc2)C(=O)N1Cc1ccnc(N)c1Br
2. CC(C)Nc1cc(CN2C(=O)N(c3ccc(C4(C#N)CCC4)cc3)C(=O)C2(C)C)ccn1
3. CC(C)Nc1cc(CN2C(=O)N(c3ccc(C4(C#N)CCCCC4)cc3)C(=O)C2(C)C)ccn1
4. CC1(C)C(=O)N(c2ccc(S(=O)(=O)C(F)(F)F)cc2)C(=O)N1Cc1ccnc(NC2CCN(S(C)(=O)=O)C2)c1 (stereo not drawn)
5. CC1(C)C(=O)N(c2ccc(C3(C(F)(F)F)CC3)cc2)C(=O)N1Cc1ccnc(NCCS(C)(=O)=O)c1
6. Cc1c(CN2C(=O)N(c3ccc(C4(C(F)(F)F)CC4)cc3)C(=O)C2(C)C)ccnc1NC(C)C
7. COCCN1CC(C)(C)c2ccc(N3C(=O)N(Cc4ccnc(NC5CCOCC5)c4)C(C)(C)C3=O)cc21

Result:
1: ≤ 500 nM; 2: ≤ 500 nM; 3: 500 to 2000 nM; 4: 500 to 2000 nM; 5: ≤ 500 nM; 6: ≤ 500 nM; 7: ≤ 500 nM

Lab note: each compound below needs its IC50 filled in.
1. CC1(C)C(=O)N(c2ccc3c(c2)N(S(C)(=O)=O)CC3)C(=O)N1Cc1ccnc(N[C@H]2[C@@H]3COC[C@@H]32)c1
2. CC1(C)C(=O)N(c2ccc(SC(F)(F)F)cc2)C(=O)N1Cc1ccnc2c1CCN2
3. CC1(C)CN(S(C)(=O)=O)c2cc(N3C(=O)N(Cc4ccnc(N[C@H]5CCOC5)c4)C(C)(C)C3=O)ccc21
4. C[C@@H]1COc2c(CN3C(=O)N(c4ccc(S(=O)(=O)C(F)(F)F)cc4)C(=O)C3(C)C)ccnc2N1
5. CC1(C)CN(C(=O)C2CC2)c2cc(N3C(=O)N(Cc4ccnc(N[C@H]5CCOC5)c4)C(C)(C)C3=O)ccc21

Result:
1. > 10000 nM
2. ≤ 500 nM
3. ≤ 500 nM
4. ≤ 500 nM
5. ≤ 500 nM

Answer for every listed entry: what is its IC50? The entries follow.
1. Cn1cc(CNc2cc(CN3C(=O)N(c4ccc(S(=O)(=O)C(F)(F)F)cc4)C(=O)C3(C)C)ccn2)cn1
2. CC(C)Nc1cc(CN2C(=O)N(c3ccc(C(C)(C)C#N)cc3)C(=O)C2(C)C)ccn1
3. CC(C)Nc1cc(CN2C(=O)N(c3ccc4c(c3)N(S(C)(=O)=O)CC4(C)C)C(=O)C2(C)C)ccn1
4. CO[C@H](C)CNc1cc(CN2C(=O)N(c3ccc(S(=O)(=O)C(F)(F)F)cc3)C(=O)C2(C)C)ccn1
5. CC(C)Nc1cc(CN2C(=O)N(c3ccc(C(C)(C)C)nc3)C(=O)C2(C)C)ccn1
6. COC[C@@H](C)Nc1cc(CN2C(=O)N(c3ccc(C4(C(F)(F)F)CC4)cc3)C(=O)C2(C)C)ccn1
7. CC1(C)C(=O)N(c2ccc(C3(C(F)(F)F)CC3)cc2)C(=O)N1Cc1ccnc(N[C@H]2[C@@H]3COC[C@@H]32)c1

Result:
1: ≤ 500 nM; 2: ≤ 500 nM; 3: ≤ 500 nM; 4: ≤ 500 nM; 5: ≤ 500 nM; 6: ≤ 500 nM; 7: ≤ 500 nM
